Test system: Aspergillus fumigatus
Assay: Antifungal activity against Aspergillus fumigatus ATCC204305 infected in Galleria mellonella larvae assessed as increase in larval survival at 15 mg/kg measured after 6 days
Type: functional, organism-based
Conditions: time 6.0 day
The source made the active and inactive calls. The rule behind the calls is not given here.
property_label: Activity

molecule | reported_value
CCOC(=O)[C@H](C)OP(=O)(OCC)Oc1ccc(COC(=O)OCOC(=O)[C@H]2[C@@H]3C[C@@H](O[C@@H]4O[C@H](C)[C@@H](O)[C@H](N)[C@@H]4O)/C=C/C=C/C=C/C=C/C=C/C=C/C=C/[C@H](C)[C@@H](O)[C@@H](C)[C@H](C)OC(=O)C[C@H](O)C[C@H](O)CC[C@@H](O)[C@H](O)C[C@H](O)C[C@](O)(C[C@@H]2O)O3)cc1 (stereo partly drawn) | Active
CC(C)OC(=O)OCOC(=O)[C@H]1[C@@H]2C[C@@H](O[C@@H]3O[C@H](C)[C@@H](O)[C@H](N)[C@@H]3O)/C=C/C=C/C=C/C=C/C=C/C=C/C=C/[C@H](C)[C@@H](O)[C@@H](C)[C@H](C)OC(=O)C[C@H](O)C[C@H](O)CC[C@@H](O)[C@H](O)C[C@H](O)C[C@](O)(C[C@@H]1O)O2 | Active
CCOP(=O)(OCCOC(C)=O)Oc1ccc(COC(=O)N[C@@H]2[C@H](O)[C@H](O[C@H]3/C=C/C=C/C=C/C=C/C=C/C=C/C=C/[C@H](C)[C@@H](O)[C@@H](C)[C@H](C)OC(=O)C[C@H](O)C[C@H](O)CC[C@@H](O)[C@H](O)C[C@H](O)C[C@]4(O)C[C@H](O)[C@@H](C(=O)O)[C@H](C3)O4)O[C@H](C)[C@H]2O)cc1 (stereo partly drawn) | Active
